Tested on: Wnt/β-catenin signaling (β-catenin activity) in SW480 cell line
Test: Cell-based Wnt agonist screening, TCF luciferase reporter, SW480 (TCF-FL)
Parameters: species or system human
Details: Homo sapiens, % of LiCl (20 mM), 24 h, Con. 120 μM, read-out: Max. Activity (%)
Define the label as Y when Emax at 120 µM is strictly less than 80% and as N in all remaining cases.

In [3]: df
Out[3]:
                                   compound  answer_label
0  O=C(NCCCn1ccnc1)c1cc(-c2ccccc2F)on1 [Derivative (81)]             N
1  O=C(NCCCn1ccnc1)c1cc(-c2ccoc2)on1 [Derivative (152)]             N
2  Nc1ccc(-c2cc(C(=O)NCCCn3ccnc3)no2)cc1 [Derivative (120)]             N
3  O=C(NCCS(=O)(=O)Nc1ccccc1)c1cc(-c2cccs2)on1 [Derivative (220)]             N
4  O=C(O)c1ccc(CCNC(=O)c2cc(-c3ccco3)on2)cc1 [Derivative (32)]             N
5  CC(=O)N1CCN(C(=O)OCc2cc(-c3ccco3)on2)CC1 [Derivative (252)]             Y

In the record for O=C(NCCCn1ccnc1)c1cc(-c2ccc(Cl)cc2)on1 [Derivative (98)] , is Emax at 120 µM less than 80%?
Y

In the record for O=C(NCCCn1ccnc1)c1cc(-c2ccc[nH]2)on1 [Derivative (160)] , is Emax at 120 µM less than 80%?
N
